Experiment: Biodistribution studies of 11C tracers
Format: in vivo, Wistar rats
Conditions: 2 min p.i., normalized for body weight
outcome_measure: SUV Cerebrum total

[11CH3]Oc1c(F)ccc(F)c1C1CCN(c2ccn3c(CC4CC4)nnc3c2C(F)(F)F)CC1 [[^11C]B-3] ... 1.09
[11CH3]Oc1c(F)ccc(F)c1C1CCN(c2ccn3c(CC4CC4)nnc3c2Cl)CC1 [[^11C]B-2] ... 1.32
[11CH3]Oc1cc(F)cc(F)c1C1CCN(c2ccn3c(CC4CC4)nnc3c2Cl)CC1 [[^11C]B-7] ... 1.08
[11CH3]Oc1ccc(F)cc1C1CCN(c2ccn3c(CC4CC4)nnc3c2Cl)CC1 [[^11C]B-4] ... 1.39
[11CH3]Oc1cccc(F)c1C1CCN(c2ccn3c(CC4CC4)nnc3c2Cl)CC1 [[^11C]B-6] ... 1.00
[11CH3]Oc1ccc(F)c(F)c1C1CCN(c2ccn3c(CC4CC4)nnc3c2Cl)CC1 [[^11C]B-10] ... 1.12
